List of melting point values.

• NC(=O)[C@H]1CN(c2cc(F)c(N3CCOCC3)c(F)c2)C(=O)O1 = 181 to 183 °C
• O=C(Nc1ccc2c(c1)OCO2)c1ccc([N+](=O)[O-])cc1 = 231 to 234 °C
• CC(C)(C)CN1C(=O)[C@@H](CC(=O)Nc2cccc(-c3nnn[nH]3)c2)O[C@H](c2ccccc2Cl)c2cc(Cl)ccc21 (relative stereo) = 218 to 220 °C
• O=C(NN1CCCCC1)c1nn(-c2ccc(Cl)cc2Cl)c2c1SCc1cc(Cl)ccc1-2 = 148 °C
• CN1C(=O)C(C)(C)N=C(c2ccccc2F)c2cc([N+](=O)[O-])cc(Cl)c21 = 237 to 238 °C
• COc1ccnc(C(C)Sc2nc3cc(OC(F)(F)C(F)Cl)ccc3[nH]2)c1 (centres undefined) = 120 to 122 °C

(Q) Look up melting point: Cn1c(CO)nc2ncccc21
(A) 130 to 132 °C

(Q) Look up melting point: CC1(Cn2c(=O)oc3ccc(Br)cc32)Cn2cc([N+](=O)[O-])nc2O1 (centres undefined)
(A) 243 to 246 °C

(Q) Look up melting point: COC(=O)[C@H](CCCCNC(=O)c1csc(NC(=O)NCc2ccccc2)n1)NC(=O)OC(C)(C)C
(A) 166 °C

(Q) Look up melting point: Cc1cc(-c2cccc(C(F)(F)F)c2)c2nc(OCC(F)(F)F)nnc2c1
(A) 140 to 141 °C

(Q) Look up melting point: CCC(=O)/C=C/c1c([N+](=O)[O-])ccc2c1OC(COS(=O)(=O)c1ccc(C)cc1)CO2 (centres undefined)
(A) 114 °C

(Q) Look up melting point: CS(=O)(=O)NC1=CC(NC(=O)CCl)([N+](=O)[O-])CC=C1OC1CCCCC1 (centres undefined)
(A) 208 to 210 °C

(Q) Look up melting point: O=C1c2ccccc2OC(CCCl)CN1Cc1ccccc1 (centres undefined)
(A) 145 to 147 °C

(Q) Look up melting point: CC(O)(C#CI)c1ccc(OC(F)(F)F)cc1 (centres undefined)
(A) 75 to 76 °C

###

List of melting point values.

• CC(C)NCCc1ccc(O)cc1 = 102 to 104 °C
• CCOc1nc(-c2ccc(F)cc2C)c2c(n1)N(c1c(F)cccc1F)C(=O)NC2 = 191 to 194 °C
• O=C(O)c1ccc(-n2cc[nH]c2=S)cc1 = 194 to 196 °C
• CCOC(=O)C(C)Oc1ncn(-c2cccc(Br)c2)n1 (stereo unspecified) = 83 to 85 °C
• CN1CCN(c2c(F)cc3c(=O)c(C(=O)O)cn(C4COC4)c3c2Cl)CC1 = 211 to 212 °C

(Q) Look up melting point: O=C1NN=C(c2ccc3c(c2)CCN(C2CCC2)CC3)C2CCCC12 (stereo unspecified)
(A) 198 to 201 °C

(Q) Look up melting point: O=CC(=Cc1ccccc1OCc1ccc([N+](=O)[O-])cc1)C(C=O)=Cc1ccccc1OCc1ccc([N+](=O)[O-])cc1
(A) 116 to 117 °C

(Q) Look up melting point: Cc1onc(-c2ccc(C(F)(F)F)cc2)c1CO
(A) 72 to 73 °C

(Q) Look up melting point: COC1(c2cccc(Sc3cc(C)c4c(ccc(=O)n4C)c3)c2)CCOCC1
(A) 101 to 102 °C

(Q) Look up melting point: CNC(NCCSCc1[nH]cnc1C)=C(C#N)C#N
(A) 133 to 135 °C

(Q) Look up melting point: CCOC(=O)C(C)(C)Oc1ccc(CNc2ccc(Cl)cc2)cc1
(A) 58 to 60 °C

(Q) Look up melting point: Cc1c(C(=O)O)cccc1-n1c(C)ccc1C
(A) 142 to 143 °C

(Q) Look up melting point: Oc1ccc2c(c1CNc1ccccc1)CCCO2
(A) 105 to 107 °C

(Q) Look up melting point: Cc1cc(NC(=O)NCc2ccc3c(c2)CN(C2CCC(=O)NC2=O)C3=O)ccc1O (stereo unspecified)
(A) 210 to 212 °C
